These measurements were taken from patent US11434239B2.

Molecular target: hERG (Homo sapiens, UniProt Q12809)
Construct: expressed in transfected cells
Sequence (Q12809 whole entry): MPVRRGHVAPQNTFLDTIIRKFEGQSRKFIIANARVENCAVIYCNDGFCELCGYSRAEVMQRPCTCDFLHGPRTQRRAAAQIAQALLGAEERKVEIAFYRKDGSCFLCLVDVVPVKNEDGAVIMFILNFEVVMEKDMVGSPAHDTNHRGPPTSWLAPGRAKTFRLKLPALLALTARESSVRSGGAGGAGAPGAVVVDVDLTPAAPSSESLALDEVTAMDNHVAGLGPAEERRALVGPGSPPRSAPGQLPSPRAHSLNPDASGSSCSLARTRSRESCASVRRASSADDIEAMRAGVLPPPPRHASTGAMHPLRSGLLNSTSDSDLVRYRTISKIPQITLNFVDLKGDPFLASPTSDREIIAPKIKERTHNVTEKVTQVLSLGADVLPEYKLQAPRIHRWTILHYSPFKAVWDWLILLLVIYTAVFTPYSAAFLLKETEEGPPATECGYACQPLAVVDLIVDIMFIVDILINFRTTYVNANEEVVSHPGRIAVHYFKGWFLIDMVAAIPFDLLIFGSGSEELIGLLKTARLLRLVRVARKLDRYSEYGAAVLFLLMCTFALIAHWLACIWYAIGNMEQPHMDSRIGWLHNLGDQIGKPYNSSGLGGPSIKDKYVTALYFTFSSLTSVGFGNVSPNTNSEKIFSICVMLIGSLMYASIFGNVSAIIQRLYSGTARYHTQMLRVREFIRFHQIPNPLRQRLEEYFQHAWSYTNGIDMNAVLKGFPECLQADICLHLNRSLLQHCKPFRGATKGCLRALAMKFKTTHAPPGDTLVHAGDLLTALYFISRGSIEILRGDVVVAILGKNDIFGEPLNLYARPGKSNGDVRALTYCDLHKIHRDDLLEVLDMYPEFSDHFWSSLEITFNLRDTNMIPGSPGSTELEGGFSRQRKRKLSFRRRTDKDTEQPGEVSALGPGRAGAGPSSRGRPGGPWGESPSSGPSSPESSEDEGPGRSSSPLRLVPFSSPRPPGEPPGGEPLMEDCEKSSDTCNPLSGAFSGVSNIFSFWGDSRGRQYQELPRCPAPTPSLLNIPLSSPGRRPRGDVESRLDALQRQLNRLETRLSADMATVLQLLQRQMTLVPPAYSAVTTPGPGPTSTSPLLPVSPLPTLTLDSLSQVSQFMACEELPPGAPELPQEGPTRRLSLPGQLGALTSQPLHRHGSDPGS
Assay: hERG inhibition, IKr current, patch clamp in HEK cells stably transfected with the hERG clone
Type: cell-based
Settings: human, HEK cells stably transfected with hERG, pH 7.4, 3 μM; read-out: Percent Inhibition Trial II (IKr current)
Each item that follows carries a reported inhibition at 3 µM.
test-readout: inhibition at 3 µM (%)

1. CN1c2ccccc2C(O)C2CN(Cc3ccccc3)CCC21 (stereo not drawn)	22.5
2. Cn1c2c(c(=O)c3ccccc31)CN(Cc1ccccc1)CC2	21.4
3. O=c1c2c([nH]c3cc(F)c(F)cc13)CCN(Cc1ccccc1)C2	14.6

###

Target: hERG (Homo sapiens, UniProt Q12809)
Construct: expressed in transfected cells
Experiment: hERG inhibition, IKr current, patch clamp in HEK cells stably transfected with the hERG clone
Format: cell-based
Conditions: human, HEK cells stably transfected with hERG, pH 7.4, 30 μM; read-out: Percent Inhibition Trial I (IKr current)
Each item that follows carries a reported inhibition at 30 µM.
test-readout: inhibition at 30 µM (%)

1) CN1c2ccccc2C(O)C2CN(Cc3ccccc3)CCC21 (stereo not drawn)	54.8
2) O=c1c2c([nH]c3cc(F)c(F)cc13)CCN(Cc1ccccc1)C2	34
3) Cn1c2c(c(=O)c3ccccc31)CN(Cc1ccccc1)CC2	58.9

###

Molecular target: CYP3A4 (Homo sapiens, UniProt P08684)
Construct: premixing appropriate volumes of buffer, microsomes and substrate; from tissue
Sequence (P08684 whole entry): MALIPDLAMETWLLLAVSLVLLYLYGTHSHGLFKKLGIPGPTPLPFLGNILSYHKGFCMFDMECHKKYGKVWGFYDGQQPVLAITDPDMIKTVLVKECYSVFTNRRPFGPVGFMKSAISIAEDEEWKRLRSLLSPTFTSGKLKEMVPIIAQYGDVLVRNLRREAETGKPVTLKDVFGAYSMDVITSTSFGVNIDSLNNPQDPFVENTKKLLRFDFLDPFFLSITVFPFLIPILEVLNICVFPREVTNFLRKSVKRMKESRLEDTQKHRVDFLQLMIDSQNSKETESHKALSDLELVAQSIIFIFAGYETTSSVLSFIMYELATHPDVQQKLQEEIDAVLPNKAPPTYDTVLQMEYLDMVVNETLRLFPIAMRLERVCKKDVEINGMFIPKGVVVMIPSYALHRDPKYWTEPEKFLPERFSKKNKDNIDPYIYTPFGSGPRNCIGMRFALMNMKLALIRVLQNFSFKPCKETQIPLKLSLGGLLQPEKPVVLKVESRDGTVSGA
Assay: CYP inhibition, microsomes
Type: in vitro ADME
Settings: column CYP3A4^b (footnote b not given), class symbols, read-out: CYP IC50 CYP3A4^b
pIC50: −log10 of the molar value.
test-readout: pIC50

1) Cn1c2c(c(=O)c3ccccc31)CN(Cc1ccccc1)CC2	< 4.30
2) CN1c2ccccc2C(O)C2CN(Cc3ccccc3)CCC21 (centres unmarked)	4.30 to 4.70

###

Biological target: hERG (Homo sapiens)
Construct: expressed in transfected cells
Assay: hERG inhibition, IKr current, patch clamp in HEK cells stably transfected with the hERG clone
Format: cell-based
Conditions: human, HEK cells stably transfected with hERG, pH 7.4, 1 μM; read-out: Percent Inhibition Trial I (IKr current)
test-readout: inhibition at 1 µM (%)

1) CN1c2ccccc2C(O)C2CN(Cc3ccccc3)CCC21 (stereo not drawn)	12.9
2) Cn1c2c(c(=O)c3ccccc31)CN(Cc1ccccc1)CC2	9.22
3) O=c1c2c([nH]c3cc(F)c(F)cc13)CCN(Cc1ccccc1)C2	5.62

###

Each item that follows carries a reported inhibition at 1 µM.
Biological target: hERG (Homo sapiens, UniProt Q12809)
Construct: expressed in transfected cells
Assay: hERG inhibition, IKr current, patch clamp in HEK cells stably transfected with the hERG clone
Format: cell-based
Conditions: human, HEK cells stably transfected with hERG, pH 7.4, 1 μM; mean of two trials; read-out: Percent Inhibition Mean (%) (IKr current)
Procedure: HEK cells stably transfected with the hERG clone are maintained at 37±2° C. in a 5% CO2 incubator. The cells are initially revived and grown in DMEM/F12+GlutaMAX-I medium supplemented with 9% fetal bovine serum (FBS) and antibiotics (Penicillin 100 IU/mL Streptomycin 100 μg/mL) (complete medium). […] Once the stable current is attained (at least 2-5 minutes) vehicle control is added and the current measured till the stable current is achieved. […]
test-readout: inhibition at 1 µM

1) Cn1c2c(c(=O)c3ccccc31)CN(Cc1ccccc1)CC2	9.04%
2) CN1c2ccccc2C(O)C2CN(Cc3ccccc3)CCC21 (stereo not drawn)	11.4%
3) O=c1c2c([nH]c3cc(F)c(F)cc13)CCN(Cc1ccccc1)C2	4.5%
